Exercise: state measured IC50 for each of the compounds provided.
# system-name: HCV NS3 helicase (Hepatitis C virus genotype 1b, UniProt P26663)
# Construct: full-length NS3 (1-631), purified at Array BioPharma
# Sequence (P26663 1027-1657): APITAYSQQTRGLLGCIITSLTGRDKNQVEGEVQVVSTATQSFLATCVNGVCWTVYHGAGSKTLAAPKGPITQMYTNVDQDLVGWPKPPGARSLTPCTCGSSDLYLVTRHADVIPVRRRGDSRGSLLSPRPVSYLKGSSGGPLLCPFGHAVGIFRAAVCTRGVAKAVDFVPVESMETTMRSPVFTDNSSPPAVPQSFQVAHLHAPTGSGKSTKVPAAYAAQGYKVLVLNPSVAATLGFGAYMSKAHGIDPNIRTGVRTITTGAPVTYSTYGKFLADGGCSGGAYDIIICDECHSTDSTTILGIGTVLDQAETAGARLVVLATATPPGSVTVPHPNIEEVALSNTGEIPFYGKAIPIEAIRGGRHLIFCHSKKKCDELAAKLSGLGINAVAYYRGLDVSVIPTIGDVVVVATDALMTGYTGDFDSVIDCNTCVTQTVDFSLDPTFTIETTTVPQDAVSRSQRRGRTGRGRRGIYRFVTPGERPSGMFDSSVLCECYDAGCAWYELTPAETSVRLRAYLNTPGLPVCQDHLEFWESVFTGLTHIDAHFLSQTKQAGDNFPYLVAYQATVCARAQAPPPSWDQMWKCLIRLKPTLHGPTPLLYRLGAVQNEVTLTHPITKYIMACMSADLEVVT
# test: HCV Helicase Prompt FRET Assay (Example A)
# Assay type: biochemical
# experimental-parameters: Table 38, compounds made using Scheme 56, Scheme 57 and Scheme 61; read-out: IC50 Activity

Fill in: IC50 of CN(c1cc(Cl)cc2c(Cn3cc(CC(=O)O)c4ccc(-c5cc(N)cc(N)c5)cc43)csc12)S(C)(=O)=O is ___
10 to 50 µM

Look at this compound and give its reported IC50. CCN(C)c1cc(Cl)cc2c(Cn3cc(CC(=O)O)c4ccc(-c5cc(N)cc(N)c5)cc43)csc12
< 10 µM

Entry CN(C=O)c1cc(Cl)cc2c(Cn3cc(CC(=O)O)c4ccc(-c5cc(N)cc(N)c5)cc43)csc12 has what IC50?
10 to 50 µM

Please report the recorded IC50 for CCNc1cc(Cl)cc2c(Cn3cc(CC(=O)O)c4ccc(-c5cc(N)cc(N)c5)cc43)csc12 .
< 10 µM

----------
# system-name: HCV NS3 helicase (Hepatitis C virus genotype 1b)
# Construct: full-length NS3 (1-631), purified at Array BioPharma
# test: HCV Helicase Prompt FRET Assay (Example A)
# Type: biochemical
# experimental-parameters: Table 26, compounds made using Scheme 33; read-out: IC50 Activity
pIC50: −log10 of the molar value.
value-type: pIC50

Sample CCC(=O)Oc1cn(Cc2csc3ccc(Cl)cc23)c2cc(-c3ccccc3)ccc12 [Example 616] — what was its pIC50?
< 4.30

May I ask what pIC50 has been recorded for Nc1ccc(CO)c(-c2ccc3c(CC(=O)O)cn(Cc4csc5ccc(Cl)cc45)c3c2)n1 [Example 615] ?
4.30 to 5.00

Tell me the measured pIC50 of O=C(O)Cc1cn(Cc2csc3ccc(Cl)cc23)c2cc(-c3ccccc3)ccc12 [Example 614] , please.
> 5.00

----------
# system-name: HCV NS3 helicase (Hepatitis C virus genotype 1b, UniProt P26663)
# Construct: full-length NS3 (1-631), purified at Array BioPharma
# test: HCV Helicase Prompt FRET Assay (Example A)
# Type: biochemical
# experimental-parameters: Table 34, compounds made using Schemes 51-52; read-out: IC50 Activity
pIC50: −log10 of the molar value.
I'd appreciate it if you could supply pIC50 values for the items below.

Quick check: pIC50 on HCV NS3 helicase (Hepatitis C virus genotype 1b, UniProt P26663), item CC(C)c1ccc(Cn2cc(C(Cc3ccccc3)C(=O)NS(=O)(=O)C3CC3)c3cc(Br)ccc32)cc1 (stereo not shown) [Example 686] ?
> 5.00

Provide value of pIC50 for this record tested with HCV NS3 helicase (Hepatitis C virus genotype 1b, UniProt P26663): CC(C)c1ccc(Cn2cc(CC(=O)NO)c3ccccc32)cc1 [Example 677]
4.30 to 5.00

Form field - read-out: pIC50; system: HCV NS3 helicase (Hepatitis C virus genotype 1b, UniProt P26663); submitted item: Cc1cc([N+](=O)[O-])ccc1-n1cc(C(NC(=O)C2CCCN2C(=O)OC(C)(C)C)C(=O)O)c2ccccc21 (stereo not shown) [Example 671]
4.30 to 5.00

So what pIC50 did Cc1cc([N+](=O)[O-])ccc1-n1cc(C(NC(=O)C2CCCN2)C(=O)O)c2ccccc21 (stereo not shown) [Example 672] get with HCV NS3 helicase (Hepatitis C virus genotype 1b, UniProt P26663)?
< 4.30

Observed pIC50 on HCV NS3 helicase (Hepatitis C virus genotype 1b, UniProt P26663) for CC(C)c1ccc(Cn2cc(C(Cc3ccccc3)C(=O)NO)c3cc(Br)ccc32)cc1 (stereo not shown) [Example 684] , please.
> 5.00

Provide value of pIC50 for this record tested with HCV NS3 helicase (Hepatitis C virus genotype 1b, UniProt P26663): COC(=O)Cc1cn(Cc2csc3ccc(Cl)cc23)c2cc(N3CCCC(OC(C)=O)C3)ccc12 (stereo not shown) [Example 697]
< 4.30

Query for HCV NS3 helicase (Hepatitis C virus genotype 1b, UniProt P26663): what pIC50 does the record show for Nc1cc(N)cc(-c2ccc3c(CC(=O)NS(=O)(=O)C4CC4)cn(Cc4csc5ccc(Cl)cc45)c3c2)c1 [Example 688] ?
> 5.00

Field: pIC50 (HCV NS3 helicase (Hepatitis C virus genotype 1b, UniProt P26663)). Entry: Cn1cc(CC(=O)O)c2ccc(-c3cc(N)cc(N)c3)cc21 [Example 675]
< 4.30

Record Nc1cc(-c2ccc3c(CC(=O)NS(=O)(=O)C4CC4)cn(Cc4csc5ccc(Cl)cc45)c3c2)cc([N+](=O)[O-])c1 [Example 687] : what is its pIC50 with HCV NS3 helicase (Hepatitis C virus genotype 1b, UniProt P26663)?
> 5.00

Lab note: need pIC50 for Nc1cc(N)cc(-c2ccc3c(CC(=O)O)cn(Cc4csc5ccccc45)c3c2)c1 [Example 679] on HCV NS3 helicase (Hepatitis C virus genotype 1b, UniProt P26663), anyone have it?
> 5.00

Query for HCV NS3 helicase (Hepatitis C virus genotype 1b, UniProt P26663): what pIC50 does the record show for Nc1cc(-c2ccc3c(CC(=O)NOCc4ccccc4)cn(Cc4csc5ccc(Cl)cc45)c3c2)cc([N+](=O)[O-])c1 [Example 689] ?
< 4.30

Tell me reported pIC50 for Nc1cc(N)cc(-c2ccc3c(CC(=O)NO)cn(Cc4csc5ccc(Cl)cc45)c3c2)c1 [Example 692] , tested with HCV NS3 helicase (Hepatitis C virus genotype 1b, UniProt P26663).
4.30 to 5.00

State its pIC50 on HCV NS3 helicase (Hepatitis C virus genotype 1b, UniProt P26663): COC(=O)C(=O)c1cn(Cc2csc3ccc(Cl)cc23)c2cc(N3CCCC(OC(C)=O)C3)ccc12 (stereo not shown) [Example 696]
4.30 to 5.00

GET /values?readout=pIC50&system=HCV NS3 helicase (Hepatitis C virus genotype 1b, UniProt P26663)&item= Nc1cc(-c2ccc3c(CC(=O)NO)cn(Cc4csc5ccc(Cl)cc45)c3c2)cc([N+](=O)[O-])c1 [Example 691]
4.30 to 5.00

HCV NS3 helicase (Hepatitis C virus genotype 1b, UniProt P26663) / pIC50 / Nc1cc(-c2ccc3c(CC(=O)NOC4CCCCO4)cn(Cc4csc5ccc(Cl)cc45)c3c2)cc([N+](=O)[O-])c1 (stereo not shown) [Example 690] : value?
< 4.30

Can you look up pIC50 on HCV NS3 helicase (Hepatitis C virus genotype 1b, UniProt P26663) for O=C(O)Cc1cn(Cc2csc3ccccc23)c2ccc(Br)cc12 [Example 678] ?
4.30 to 5.00

----------
Field: pIC50. Provide a value for each of the compounds that follow.
# system-name: HCV NS3 helicase (Hepatitis C virus genotype 1b, UniProt P26663)
# Construct: full-length NS3 (1-631), purified at Array BioPharma
# test: HCV Helicase Prompt FRET Assay (Example A)
# Assay type: biochemical
# experimental-parameters: HCV NS3 helicase; tables do not say whether Example A or Example B assay; read-out: IC50 Activity
pIC50: −log10 of the molar value.

State its pIC50 on HCV NS3 helicase (Hepatitis C virus genotype 1b, UniProt P26663): COc1ccc2c(c1)c(CC(=O)O)cn2Cc1cccc(OCc2ccccc2)c1 [Example 107]
4.30 to 5.00

Enter reported pIC50 observed with HCV NS3 helicase (Hepatitis C virus genotype 1b, UniProt P26663) for O=C(O)Cc1cn(Cc2cccc(I)c2)c2ccc(OCc3ccccc3)cc12 [Example 123]
> 5.00

Record lookup: for HCV NS3 helicase (Hepatitis C virus genotype 1b, UniProt P26663), what pIC50 belongs to CN(c1cccc(Cn2cc(CC(=O)O)c3ccccc32)c1)c1cccc(F)c1F [Example 533] ?
> 5.00

Record O=C(O)Cc1c(C(=O)c2cccc(-c3ccc(CO)cc3)c2)[nH]c2ccccc12 [Example 235] : what is its pIC50 with HCV NS3 helicase (Hepatitis C virus genotype 1b, UniProt P26663)?
4.30 to 5.00

----------
Kindly supply the reported pIC50 values for the records listed here.
# system-name: HCV NS3 helicase (Hepatitis C virus genotype 1b, UniProt P26663)
# Construct: full-length NS3 (1-631), purified at Array BioPharma
# test: HCV Helicase Prompt FRET Assay (Example A)
# Assay type: biochemical
# experimental-parameters: HCV NS3 helicase; tables do not say whether Example A or Example B assay; read-out: IC50 Activity
pIC50: −log10 of the molar value.

Record request: pIC50 value, item CC(C)c1ccc(Cn2c(C(=O)N3CCNCC3)c(CC(=O)O)c3cc(Br)ccc32)cc1
< 4.30

So what's the measured pIC50 for this one? CC(C)c1ccc(Cn2cc(CC(=O)O)c3cc(Br)ccc32)cc1
4.30 to 5.00

Find the recorded pIC50 belonging to CN(c1cccc(Cn2cc(CC(=O)O)c3ccccc32)c1)c1cc(Cl)ccc1Cl and report it.
> 5.00

# lookup: pIC50 of CC(C)c1ccc(Cn2c(C(=O)N3CCNC(=O)C3)c(CC(=O)O)c3cc(Br)ccc32)cc1
< 4.30

Requested read-out: pIC50. Entry: O=C(O)Cc1c(Cc2cccc(-c3cccc(CO)c3)c2)[nH]c2ccccc12
> 5.00

Query: pIC50; subject: Cc1ccc(-c2ccc(C(=O)c3[nH]c4ccccc4c3CC(=O)O)cc2)cc1Cl
> 5.00

Fill blank: measured pIC50 of the molecule CC(C)NC(=O)c1c(CC(=O)O)c2cc(Br)ccc2n1Cc1ccc(C(C)C)cc1 is ____.
4.30 to 5.00

# pIC50 lookup, item O=C(Cn1cc(Cc2nnn[nH]2)c2ccccc21)N1CCC(Cc2ccccc2)CC1
4.30 to 5.00

Field request: pIC50 | item: Cc1ccc2c(c1)c(CC(=O)O)cn2-c1ccc([N+](=O)[O-])cc1C
< 4.30

GET /values?readout=pIC50&item= CCC(C)N(Cc1ccccc1)c1ccc(-n2cc(CC(=O)O)c3ccccc32)cc1 (stereo not shown)
> 5.00

What pIC50 value was documented for this molecule, COc1ccc(Oc2cccc(Cn3cc(CC(=O)O)c4ccccc43)c2)cc1 ?
> 5.00

Which value of pIC50 has been reported for O=C(O)Cc1c(C(=O)c2cccc(-c3ccc(Cl)c(Cl)c3)c2)oc2ccccc12 in the records?
> 5.00

Name the reported pIC50 value associated with the molecule C#Cc1ccc2c(CC(=O)O)cn(Cc3csc4ccc(Cl)cc34)c2c1
> 5.00

Which pIC50 is reported for this molecule? Cc1ccc(-c2ccc(Cc3[nH]c4ccccc4c3CC(=O)O)cc2)cc1C
> 5.00

For the molecule O=C(O)Cc1cn(Cc2ccc(-c3ccccc3)cc2)c2ccc(OCc3ccccc3)cc12 , what pIC50 is on record?
> 5.00

For O=C(O)Cc1c[nH]c2c(Oc3ccc([N+](=O)[O-])cc3)cccc12 , what is its reported pIC50?
< 4.30

GET /values?readout=pIC50&item= COc1ccc(Oc2cccc(Cn3cc(CC(=O)O)c4ccccc43)c2)cc1OC
4.30 to 5.00

Quick one: pIC50 for Cc1cc([N+](=O)[O-])ccc1-n1cc(C(=O)C(=O)O)c2cc(Br)cnc21 ?
4.30 to 5.00

Please report the recorded pIC50 for CCOC(=O)C(Cc1ccccc1)c1c(-c2ccccc2)n(Cc2csc3ccc(Cl)cc23)c2ccccc12 (stereo not shown) .
< 4.30

Value lookup for pIC50; key = COc1cccc(Cn2cc(CC(=O)O)c3cc(Br)ccc32)c1
4.30 to 5.00

Field request: pIC50 | item: Cc1cc([N+](=O)[O-])ccc1-n1cc(CC(=O)O)c2ccccc21
< 4.30

May I ask what pIC50 has been recorded for CCN(CC)C(=O)c1c(CC(=O)O)c2cc(Br)ccc2n1Cc1ccc(C(C)C)cc1 ?
4.30 to 5.00

Give its pIC50 value. Item: O=C(O)Cc1cn(Cc2ccc(Oc3ccc(F)cc3)cc2)c2ccccc12
> 5.00

Return reported pIC50; argument: CCOC(=O)C(O)c1cn(-c2ccc([N+](=O)[O-])cc2C)c2ccc(Br)cc12 (stereo not shown)
< 4.30

Which pIC50 value belongs to CC(C)c1ccc(Cn2c(C(=O)Nc3cccc(S(C)(=O)=O)c3)c(CC(=O)O)c3ccccc32)cc1 ?
> 5.00

Return reported pIC50; argument: Cc1cc([N+](=O)[O-])ccc1-n1cc(C(=O)C(N)=O)c2cc(Br)ccc21
< 4.30

Form field: reported pIC50 of COc1cccc(Oc2ccc(Cn3cc(CC(=O)O)c4ccccc43)cc2)c1
4.30 to 5.00

I'd like to know its pIC50. The molecule in question is O=C(O)Cc1cn(Cc2csc3ccc(Br)cc23)c2ccc(Br)cc12
> 5.00

Given the molecule COc1cccc(CN(C)c2ccc(-n3cc(CC(=O)O)c4ccccc43)cc2)c1 , what is its reported pIC50?
> 5.00

Looking for the measured pIC50 of O=C(O)Cc1cn(Cc2ccc(Oc3cc(Cl)cc(Cl)c3)cc2)c2ccccc12 , can you help?
> 5.00

Item Cc1cc([N+](=O)[O-])ccc1-n1cc(C(C)C(=O)O)c2cc(Br)ccc21 (stereo not shown) has what recorded pIC50?
4.30 to 5.00

Fill in the blank: the reported pIC50 of COc1ccc(Oc2ccc(Cn3cc(CC(=O)O)c4ccccc43)cc2)cc1OC is ____.
> 5.00

Entry under review: NC(=O)c1cccc(-c2cccc(Cc3[nH]c4ccccc4c3CC(=O)O)c2)c1 . Reported pIC50?
4.30 to 5.00

Which pIC50 reading was recorded for the molecule O=C(O)Cc1c(Cc2ccc(-c3ccccc3)cc2)sc2ccccc12 ?
> 5.00
